Tested on: 377384-186-R-J1-PDC complex spheroid viability
Assay: Anticancer human tumor 377384-186-R-J1-PDC patient-derived pancreatic carcinoma cell line growth inhibition [RAS]; active = viability on the fitted dose curve at most 10% of control; inactive = the rest
Settings: second compound 0.003 µM; first compound 0.0949 µM
Your response should consist of one outcome taken from Y = active, N = inactive

Study these solved cases before continuing.
CC1(C)CCC(Nc2ncc(C(F)(F)F)c(-c3c[nH]c4c(P(C)(C)=O)c(C#N)ccc34)n2)CN1 (centres undefined) + CCn1c(-c2cc(N3CCN(C)CC3)cnc2C(C)OC)c2c3cc(ccc31)-c1csc(n1)CC(NC(=O)C1CC1C)C(=O)N1CCCC(N1)C(=O)OCC(C)(C)C2 : Y
CCc1c2c(nc3ccc(O)cc13)-c1cc3c(c(=O)n1C2)COC(=O)[C@]3(O)CC + CCn1c(-c2cc(N3CCN(C)CC3)cnc2C(C)OC)c2c3cc(ccc31)-c1csc(n1)CC(NC(=O)C1CC1C)C(=O)N1CCCC(N1)C(=O)OCC(C)(C)C2 : Y
CCc1c2c(nc3ccc(O)cc13)-c1cc3c(c(=O)n1C2)COC(=O)[C@]3(O)CC + CCn1c(-c2cccnc2C(C)OC)c2c3cc(ccc31)N1CCOC(CC(NC(=O)C(C(C)C)N(C)C(=O)C3(F)CCN(C(=O)C#CC(C)(C)N(C)C)CC3)C(=O)N3CCCC(N3)C(=O)OCC(C)(C)C2)C1 : Y

We now examine a further molecule.
// param item: CC1(C)CCC(Nc2ncc(C(F)(F)F)c(-c3c[nH]c4c(P(C)(C)=O)c(C#N)ccc34)n2)CN1 (centres undefined) + CCn1c(-c2cccnc2C(C)OC)c2c3cc(ccc31)N1CCOC(CC(NC(=O)C(C(C)C)N(C)C(=O)C3(F)CCN(C(=O)C#CC(C)(C)N(C)C)CC3)C(=O)N3CCCC(N3)C(=O)OCC(C)(C)C2)C1 ; yields the recorded call N

---

Tested on: 377384-186-R-J1-PDC complex spheroid viability
Test: Anticancer human tumor 377384-186-R-J1-PDC cell line growth inhibition [RAS];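 note: spheroids exposed to compounds for seven days before readout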
Details: second compound 0.003 µM; first compound 0.0316 µM; hits give low values
Threshold 20%. viability, T/C below it: Fulfilled. viability, T/C at it or above: Not fulfilled.

C=CC(=O)Nc1cc(Nc2nccc(-c3cn(C)c4ccccc34)n2)c(OC)cc1N(C)CCN(C)C + CCn1c(-c2cccnc2C(C)OC)c2c3cc(ccc31)N1CCOC(CC(NC(=O)C(C(C)C)N(C)C(=O)C3(F)CCN(C(=O)C#CC(C)(C)N(C)C)CC3)C(=O)N3CCCC(N3)C(=O)OCC(C)(C)C2)C1 : Not fulfilled
CC(Nc1ccc2c(c1)OCCn1cc(N3C(=O)OCC3C(F)F)nc1-2)C(N)=O (centres undefined) + CCn1c(-c2cc(N3CCN(C)CC3)cnc2C(C)OC)c2c3cc(ccc31)-c1csc(n1)CC(NC(=O)C1CC1C)C(=O)N1CCCC(N1)C(=O)OCC(C)(C)C2 : Fulfilled
C=CC(=O)Nc1cc(Nc2nccc(-c3cn(C)c4ccccc34)n2)c(OC)cc1N(C)CCN(C)C + CCn1c(-c2cc(N3CCN(C)CC3)cnc2C(C)OC)c2c3cc(ccc31)-c1csc(n1)CC(NC(=O)C1CC1C)C(=O)N1CCCC(N1)C(=O)OCC(C)(C)C2 : Fulfilled
O=C(c1ccc(F)c(F)c1Nc1ccc(I)cc1F)N1CC(O)([C@@H]2CCCCN2)C1 + CCn1c(-c2cccnc2C(C)OC)c2c3cc(ccc31)N1CCOC(CC(NC(=O)C(C(C)C)N(C)C(=O)C3(F)CCN(C(=O)C#CC(C)(C)N(C)C)CC3)C(=O)N3CCCC(N3)C(=O)OCC(C)(C)C2)C1 : Not fulfilled
C=CC(=O)N1CCN(c2nc(OCC3CCCN3C)nc3c(F)c(-c4nc(N)cc(C)c4C(F)(F)F)c(Cl)cc23)C(C)C1 (centres undefined) + CCn1c(-c2cccnc2C(C)OC)c2c3cc(ccc31)N1CCOC(CC(NC(=O)C(C(C)C)N(C)C(=O)C3(F)CCN(C(=O)C#CC(C)(C)N(C)C)CC3)C(=O)N3CCCC(N3)C(=O)OCC(C)(C)C2)C1 : Not fulfilled
CC(C)n1nc(-c2ccc3oc(N)nc3c2)c2c(N)ncnc21 + CCn1c(-c2cccnc2C(C)OC)c2c3cc(ccc31)N1CCOC(CC(NC(=O)C(C(C)C)N(C)C(=O)C3(F)CCN(C(=O)C#CC(C)(C)N(C)C)CC3)C(=O)N3CCCC(N3)C(=O)OCC(C)(C)C2)C1 : Not fulfilled
NC1c2ccccc2OC12CCN(c1cnc3c(N4CCCc5ncccc54)n[nH]c3n1)CC2 (centres undefined) + CCn1c(-c2cccnc2C(C)OC)c2c3cc(ccc31)N1CCOC(CC(NC(=O)C(C(C)C)N(C)C(=O)C3(F)CCN(C(=O)C#CC(C)(C)N(C)C)CC3)C(=O)N3CCCC(N3)C(=O)OCC(C)(C)C2)C1 : Not fulfilled

We now examine a further compound.
viability, T/C strictly < 20% for this compound? CC(=O)OC12COC1CC(O)C1(C)C(=O)C(O)C3=C(C)C(OC(=O)C(O)C(NC(=O)OC(C)(C)C)c4ccccc4)CC(O)(C(OC(=O)c4ccccc4)C21)C3(C)C (centres undefined) + CCn1c(-c2cc(N3CCN(C)CC3)cnc2C(C)OC)c2c3cc(ccc31)-c1csc(n1)CC(NC(=O)C1CC1C)C(=O)N1CCCC(N1)C(=O)OCC(C)(C)C2 Fulfilled

---

System: 377384-186-R-J1-PDC complex spheroid viability
Assay: Anticancer human tumor 377384-186-R-J1-PDC cell line growth inhibition [RAS];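 note: spheroids exposed to compounds for seven days before readout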
Settings: second compound 0.000949 µM; first compound 0.00316 µM; hits give low values
Threshold 90%. viability, T/C below it: t. viability, T/C at it or above: f.

C=CC(=O)N1CCN(c2nc(OCC3CCCN3C)nc3c(F)c(-c4nc(N)cc(C)c4C(F)(F)F)c(Cl)cc23)C(C)C1 (configuration not stated) + CCn1c(-c2cc(N3CCN(C)CC3)cnc2C(C)OC)c2c3cc(ccc31)-c1csc(n1)CC(NC(=O)C1CC1C)C(=O)N1CCCC(N1)C(=O)OCC(C)(C)C2 : t
CCN1CCN(Cc2ccc(Nc3ncc(F)c(-c4cc(F)c5nc(C)n(C(C)C)c5c4)n3)nc2)CC1 + CCn1c(-c2cc(N3CCN(C)CC3)cnc2C(C)OC)c2c3cc(ccc31)-c1csc(n1)CC(NC(=O)C1CC1C)C(=O)N1CCCC(N1)C(=O)OCC(C)(C)C2 : t
CC(C)n1nc(-c2ccc3oc(N)nc3c2)c2c(N)ncnc21 + CCn1c(-c2cc(N3CCN(C)CC3)cnc2C(C)OC)c2c3cc(ccc31)-c1csc(n1)CC(NC(=O)C1CC1C)C(=O)N1CCCC(N1)C(=O)OCC(C)(C)C2 : t
C=CC(=O)Nc1cc(Nc2nccc(-c3cn(C)c4ccccc34)n2)c(OC)cc1N(C)CCN(C)C + CCn1c(-c2cccnc2C(C)OC)c2c3cc(ccc31)N1CCOC(CC(NC(=O)C(C(C)C)N(C)C(=O)C3(F)CCN(C(=O)C#CC(C)(C)N(C)C)CC3)C(=O)N3CCCC(N3)C(=O)OCC(C)(C)C2)C1 : f
Nc1ccn(C2OC(CO)C(O)C2(F)F)c(=O)n1 (configuration not stated) + CCn1c(-c2cc(N3CCN(C)CC3)cnc2C(C)OC)c2c3cc(ccc31)-c1csc(n1)CC(NC(=O)C1CC1C)C(=O)N1CCCC(N1)C(=O)OCC(C)(C)C2 : t

viability, T/C strictly < 90% for this molecule? Nc1ccn(C2OC(CO)C(O)C2(F)F)c(=O)n1 (configuration not stated) + CCn1c(-c2cccnc2C(C)OC)c2c3cc(ccc31)N1CCOC(CC(NC(=O)C(C(C)C)N(C)C(=O)C3(F)CCN(C(=O)C#CC(C)(C)N(C)C)CC3)C(=O)N3CCCC(N3)C(=O)OCC(C)(C)C2)C1 t

viability, T/C strictly < 90% for this molecule? C=CC(=O)N1CCN(c2nc(OCC3CCCN3C)nc3c(F)c(-c4nc(N)cc(C)c4C(F)(F)F)c(Cl)cc23)C(C)C1 (configuration not stated) + CCn1c(-c2cccnc2C(C)OC)c2c3cc(ccc31)N1CCOC(CC(NC(=O)C(C(C)C)N(C)C(=O)C3(F)CCN(C(=O)C#CC(C)(C)N(C)C)CC3)C(=O)N3CCCC(N3)C(=O)OCC(C)(C)C2)C1 f

viability, T/C strictly < 90% for this molecule? CC(C)n1nc(-c2ccc3oc(N)nc3c2)c2c(N)ncnc21 + CCn1c(-c2cccnc2C(C)OC)c2c3cc(ccc31)N1CCOC(CC(NC(=O)C(C(C)C)N(C)C(=O)C3(F)CCN(C(=O)C#CC(C)(C)N(C)C)CC3)C(=O)N3CCCC(N3)C(=O)OCC(C)(C)C2)C1 t

viability, T/C strictly < 90% for this molecule? C=CC(=O)Nc1cc(Nc2nccc(-c3cn(C)c4ccccc34)n2)c(OC)cc1N(C)CCN(C)C + CCn1c(-c2cc(N3CCN(C)CC3)cnc2C(C)OC)c2c3cc(ccc31)-c1csc(n1)CC(NC(=O)C1CC1C)C(=O)N1CCCC(N1)C(=O)OCC(C)(C)C2 t

viability, T/C strictly < 90% for this molecule? O=C(c1ccc(F)c(F)c1Nc1ccc(I)cc1F)N1CC(O)([C@@H]2CCCCN2)C1 + CCn1c(-c2cc(N3CCN(C)CC3)cnc2C(C)OC)c2c3cc(ccc31)-c1csc(n1)CC(NC(=O)C1CC1C)C(=O)N1CCCC(N1)C(=O)OCC(C)(C)C2 t

viability, T/C strictly < 90% for this molecule? CCN1CCN(Cc2ccc(Nc3ncc(F)c(-c4cc(F)c5nc(C)n(C(C)C)c5c4)n3)nc2)CC1 + CCn1c(-c2cccnc2C(C)OC)c2c3cc(ccc31)N1CCOC(CC(NC(=O)C(C(C)C)N(C)C(=O)C3(F)CCN(C(=O)C#CC(C)(C)N(C)C)CC3)C(=O)N3CCCC(N3)C(=O)OCC(C)(C)C2)C1 f
